# test.target: T1, 人LAG3抗原 (ACRO, Cat.LA3-H5222) (human, UniProt P18627 23-450)
# T1 construct: Bought protein; also called human LAG3 antigen
# T1 sequence (looked up): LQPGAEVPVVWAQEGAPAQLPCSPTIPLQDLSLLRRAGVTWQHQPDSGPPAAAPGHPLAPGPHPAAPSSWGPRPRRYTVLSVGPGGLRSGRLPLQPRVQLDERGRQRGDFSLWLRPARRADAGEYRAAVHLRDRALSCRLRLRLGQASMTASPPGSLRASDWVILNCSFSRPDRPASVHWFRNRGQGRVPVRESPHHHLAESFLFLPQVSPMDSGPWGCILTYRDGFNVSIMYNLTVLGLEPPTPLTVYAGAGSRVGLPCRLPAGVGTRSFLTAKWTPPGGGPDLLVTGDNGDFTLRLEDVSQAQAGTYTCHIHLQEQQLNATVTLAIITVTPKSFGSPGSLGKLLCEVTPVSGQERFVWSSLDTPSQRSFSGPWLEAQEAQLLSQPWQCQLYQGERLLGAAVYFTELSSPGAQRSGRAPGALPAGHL
# measurement.protocol: indirect ELISA, coated human LAG3
Checkbox rule: EC50 lower than 0.2 mg/L = Criterion met; EC50 not lower than 0.2 mg/L = Criterion not met.

// query is_below(EC50, 0.2 mg/L) for hmL42人源化亲和力成熟变体 R2G10 (antibody, V domains shown) VH: QVQLVQSGAEVKKPGASVKVSCKASGYTFTDYEVHWVKQAPGQGLEWMGAIHPGSGGAAYNQKVKGKVTMTADTSISTAYMELSRLRSDDTAVYYCTSYGWNDWGQGTTVTVS VL: DIQLTQSPSFLSASVGDRVTITCKASQDVSTAVAWYQQKPGKSPKLLISWASTRHTGVPDRFAGSGSGTDFTLTISSLQPEDFATYYCQQYWEFSFTFGQGTKLEIK ?
// result Criterion met

// query // repeat for hmL42人源化亲和力成熟变体 R3B5 (antibody, V domains shown) VH: QVQLVQSGAEVKKPGASVKVSCKASGYTFTDYEVHWVKQAPGQGLEWMGAIHPGSGGAAYNQKVKGKVTMTADTSISTAYMELSRLRSDDTAVYYCTSYGWNDWGQGTTVTVS VL: DIQLTQSPSFLSASVGDRVTITCKASQDVSTAVAWYQQKPGKSPKLLISWASTRHTGVPDRFAGSGSGTDFTLTISSLQPEDFATYYCQQYVRFSYTFGQGTKLEIK and report
// result Criterion met

// query // repeat for hmL42人源化亲和力成熟变体 R3C4 (antibody, V domains shown) VH: QVQLVQSGAEVKKPGASVKVSCKASGYTFTDYEVHWVKQAPGQGLEWMGAIHPGSGGAAYNQKVKGKVTMTADTSISTAYMELSRLRSDDTAVYYCTSYGWNDWGQGTTVTVS VL: DIQLTQSPSFLSASVGDRVTITCKASQDVSTAVAWYQQKPGKSPKLLISWASTRHTGVPDRFAGSGSGTDFTLTISSLQPEDFATYYCQQYVAFSFTFGQGTKLEIK and report
// result Criterion not met

// query // repeat for hmL42人源化亲和力成熟变体 R2C9 (antibody, V domains shown) VH: QVQLVQSGAEVKKPGASVKVSCKASGYTFTDYEVHWVKQAPGQGLEWMGAIHPGSGGAAYNQKVKGKVTMTADTSISTAYMELSRLRSDDTAVYYCTSYGWNDWGQGTTVTVS VL: DIQLTQSPSFLSASVGDRVTITCKASQDVSTAVAWYQQKPGKSPKLLISWASTRHTGVPDRFAGSGSGTDFTLTISSLQPEDFATYYCMSYVVFPYTFGQGTKLEIK and report
// result Criterion not met
